- target.system: human MC3R (Homo sapiens)
- Construct: expressed in transfected cells; host or cells: HEK293/CRE-luc/MC3R
- assay.explanation: cAMP accumulation assay (HTRF), antagonist activity at MC3R
- Type: cell-based
- condition.context: dose-response fit, MC3R
Structures can show the parent of a compound that is named as a salt. Positions of bridges follow the written chain, without caps; N, C: chain ends. Non-standard residues stand in square brackets, D forms with d. Residues, ends and D or L forms follow the SMILES beside them. d2Nal = N[C@H](Cc1ccc2ccccc2c1)C(=O)O; Nle = CCCC[C@H](N)C(=O)O
Recorded Top (%) for the following compounds
Enter your answer as a number in %; do not include the unit.

Sample records with Top (%):
CCCC[C@@H]1NC(=O)[C@@H](NC(C)=O)CSSC[C@@H](C(N)=O)NC(=O)CNC(=O)[C@H](Cc2c[nH]c3ccccc23)NC(=O)[C@H](CCCNC(=N)N)NC(=O)[C@@H](Cc2ccc3ccccc3c2)NC(=O)[C@H](Cc2c[nH]cn2)NC(=O)[C@H](CCCNC(=N)N)NC1=O [HS024(TFA), reference compound] (Ac-C[Nle]RH[d2Nal]RWGC-NH2; disulfide 1-9 (inferred); N-terminus and C-terminus assumed): 117.07
CCCC[C@H](NC(C)=O)C(=O)N[C@H]1CC(=O)NCCCC[C@@H](C(=O)N2CCC[C@@H]2C(=O)N[C@@H](C(N)=O)C(C)C)NC(=O)[C@H](Cc2c[nH]c3ccccc23)NC(=O)[C@H](CCCNC(=N)N)NC(=O)[C@@H](Cc2ccc3ccccc3c2)NC(=O)[C@@H]2CCCN2C1=O [TCMCB02] (Ac-[Nle]DP[d2Nal]RWK[dP][dV]-NH2; lactam 2-7): 120.45
CCCC[C@H](NC(C)=O)C(=O)N[C@@H](CC(=O)O)C(=O)N1CCC[C@H]1C(=O)N[C@H](Cc1ccc2ccccc2c1)C(=O)N[C@@H](CCCNC(=N)N)C(=O)N[C@@H](Cc1c[nH]c2ccccc12)C(=O)N[C@@H](CCCCN)C(=O)N[C@@H](C(=O)N1CCC[C@@H]1C(N)=O)C(C)C [Peptide A1] (Ac-[Nle]DP[d2Nal]RWK[dV][dP]-NH2): 1002.64

Now for a further compound.
Asked: // returns reported Top (%) for input CCCC[C@H](NC(C)=O)C(=O)N[C@H]1CC(=O)NCCCC[C@@H](C(=O)N2CCC[C@@H]2C(=O)N[C@@H](C(N)=O)C(C)C)NC(=O)[C@H](Cc2c[nH]c3ccccc23)NC(=O)[C@H](CCCNC(=N)N)NC(=O)[C@@H](Cc2ccc3ccccc3c2)NC(=O)[C@H](Cc2c[nH]cn2)NC(=O)[C@@H]2CCCN2C1=O [Peptide D5] (Ac-[Nle]DPH[d2Nal]RWK[dP][dV]-NH2; lactam 2-8)
Given back: 472.61

====

- target.system: human MC3R (Homo sapiens, UniProt P41968)
- Construct: expressed in transfected cells; host or cells: HEK293/CRE-luc/MC3R
- Sequence (P41968 whole entry): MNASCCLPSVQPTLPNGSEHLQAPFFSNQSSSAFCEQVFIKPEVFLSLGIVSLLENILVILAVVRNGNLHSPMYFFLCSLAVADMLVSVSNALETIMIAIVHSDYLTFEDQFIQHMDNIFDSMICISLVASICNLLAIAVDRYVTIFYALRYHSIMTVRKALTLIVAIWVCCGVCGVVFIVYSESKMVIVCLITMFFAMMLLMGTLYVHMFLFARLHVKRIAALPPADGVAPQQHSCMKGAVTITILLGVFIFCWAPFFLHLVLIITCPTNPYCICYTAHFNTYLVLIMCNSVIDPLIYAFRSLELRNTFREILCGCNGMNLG
- assay.explanation: cAMP accumulation assay (HTRF), antagonist activity at MC3R
- Assay type: cell-based
- condition.context: dose-response fit, MC3R
Positions of bridges follow the written chain, without caps; N, C: chain ends. Non-standard residues stand in square brackets, D forms with d. Residues, ends and D or L forms follow the SMILES beside them. d2Nal = N[C@H](Cc1ccc2ccccc2c1)C(=O)O; Hyp = O=C(O)[C@@H]1C[C@@H](O)CN1; Nle = CCCC[C@H](N)C(=O)O
measured.metric: Top (%)
Enter your answer as a number in %; do not include the unit.

Asked: // returns reported Top (%) for input CCCC[C@H](NC(C)=O)C(=O)N[C@H]1CC(=O)NCCCC[C@@H](C(=O)N[C@@H](C(=O)N2CCC[C@@H]2C(N)=O)C(C)C)NC(=O)[C@H](Cc2c[nH]c3ccccc23)NC(=O)[C@H](CCCNC(=N)N)NC(=O)[C@@H](Cc2ccc3ccccc3c2)NC(=O)[C@@H]2C[C@@H](O)CN2C1=O [Peptide D3] (Ac-[Nle]D[Hyp][d2Nal]RWK[dV][dP]-NH2; lactam 2-7)
Given back: 113.20
